# Study target: P167L Rho (Escherichia coli, UniProt P0AG30, P167L)
# Assay info: biochemical
# Format: binding
# Condition summary: Kd, ITC, 1 μM Rho P167L, 50 μM peptide, 1 mM ATP, pH 8.0, 25 °C; average of three experiments ± SD; Fig. 4B
Ends that are not written are not given here.
A collection of sequences and their measured Kd
Write the answer as a number in nM, unit excluded.

Recorded Kd for MHHHHHHTPAQGMIFSVKVRTGITSVSVKAWLFWRMREDFQPDTD [peptide 16] with P167L Rho (Escherichia coli, UniProt P0AG30, P167L), please?
214

Continuing:
Query the reported Kd for P167L Rho (Escherichia coli, UniProt P0AG30, P167L); item: MHHHHHHTPAQFIFFRVKVRNWHTSVSVKAWLFWRMREDFQPDTD [peptide 33]
16.6

---

# Study target: P167L Rho (Escherichia coli, UniProt P0AG30, P167L)
# Assay info: biochemical
# Assay type: binding
# Condition summary: Kd, Rho + NusG-CTD (5 μM) + ATP; average of three experiments ± SD; Fig. 6A
Ends that are not written are not given here.
Outcome measure: Kd

Record MHHHHHHTPAQFIFFRVKVRNWHTSVSVKAWLFWRMREDFQPDTD [peptide 33] : what is its Kd with P167L Rho (Escherichia coli, UniProt P0AG30, P167L)?
26.5 nM

---

# Study target: P167L Rho (Escherichia coli, UniProt P0AG30, P167L)
# Assay info: biochemical
# Format: binding
# Condition summary: Kd, Rho + PolyC (2 mM Poly(rC)); average of three experiments ± SD; Fig. 6A
Ends that are not written are not given here.
Outcome measure: Kd
Please answer in the form of a number followed by its unit of measurement.

What measured Kd goes with MHHHHHHTPAQFIFFRVKVRNWHTSVSVKAWLFWRMREDFQPDTD [peptide 33] ?
0.164 µM

---

# Study target: P167L Rho (Escherichia coli, UniProt P0AG30, P167L)
# Assay info: biochemical
# Format: binding
# Condition summary: Kd, P167L Rho; ITC
Ends that are not written are not given here.
Outcome measure: Kd (nM)
Kindly provide the numeric value in nM only, without the unit symbol.

# lookup: Kd of MHHHHHHTPAQFIFFRVKVRNWHTSVSVKAWLFWRMREDFQPDTD [peptide 33]
17

---

# Study target: P167L Rho (Escherichia coli, UniProt P0AG30, P167L)
# Assay info: biochemical
# Assay type: binding
# Condition summary: Kd, Rho + Poly dC34 (10 μM) + ATP; average of three experiments ± SD; Fig. 6A
Ends that are not written are not given here.
Outcome measure: Kd (nM)
Form entry: value (nM) — number only.

Data request, read-out Kd, for MHHHHHHTPAQFIFFRVKVRNWHTSVSVKAWLFWRMREDFQPDTD [peptide 33]
255

Taken from paper PMC8141534.
